measured_target: Fatty acid synthase (Homo sapiens, UniProt P49327)
Sequence (P49327 whole entry, the tested form may be a part): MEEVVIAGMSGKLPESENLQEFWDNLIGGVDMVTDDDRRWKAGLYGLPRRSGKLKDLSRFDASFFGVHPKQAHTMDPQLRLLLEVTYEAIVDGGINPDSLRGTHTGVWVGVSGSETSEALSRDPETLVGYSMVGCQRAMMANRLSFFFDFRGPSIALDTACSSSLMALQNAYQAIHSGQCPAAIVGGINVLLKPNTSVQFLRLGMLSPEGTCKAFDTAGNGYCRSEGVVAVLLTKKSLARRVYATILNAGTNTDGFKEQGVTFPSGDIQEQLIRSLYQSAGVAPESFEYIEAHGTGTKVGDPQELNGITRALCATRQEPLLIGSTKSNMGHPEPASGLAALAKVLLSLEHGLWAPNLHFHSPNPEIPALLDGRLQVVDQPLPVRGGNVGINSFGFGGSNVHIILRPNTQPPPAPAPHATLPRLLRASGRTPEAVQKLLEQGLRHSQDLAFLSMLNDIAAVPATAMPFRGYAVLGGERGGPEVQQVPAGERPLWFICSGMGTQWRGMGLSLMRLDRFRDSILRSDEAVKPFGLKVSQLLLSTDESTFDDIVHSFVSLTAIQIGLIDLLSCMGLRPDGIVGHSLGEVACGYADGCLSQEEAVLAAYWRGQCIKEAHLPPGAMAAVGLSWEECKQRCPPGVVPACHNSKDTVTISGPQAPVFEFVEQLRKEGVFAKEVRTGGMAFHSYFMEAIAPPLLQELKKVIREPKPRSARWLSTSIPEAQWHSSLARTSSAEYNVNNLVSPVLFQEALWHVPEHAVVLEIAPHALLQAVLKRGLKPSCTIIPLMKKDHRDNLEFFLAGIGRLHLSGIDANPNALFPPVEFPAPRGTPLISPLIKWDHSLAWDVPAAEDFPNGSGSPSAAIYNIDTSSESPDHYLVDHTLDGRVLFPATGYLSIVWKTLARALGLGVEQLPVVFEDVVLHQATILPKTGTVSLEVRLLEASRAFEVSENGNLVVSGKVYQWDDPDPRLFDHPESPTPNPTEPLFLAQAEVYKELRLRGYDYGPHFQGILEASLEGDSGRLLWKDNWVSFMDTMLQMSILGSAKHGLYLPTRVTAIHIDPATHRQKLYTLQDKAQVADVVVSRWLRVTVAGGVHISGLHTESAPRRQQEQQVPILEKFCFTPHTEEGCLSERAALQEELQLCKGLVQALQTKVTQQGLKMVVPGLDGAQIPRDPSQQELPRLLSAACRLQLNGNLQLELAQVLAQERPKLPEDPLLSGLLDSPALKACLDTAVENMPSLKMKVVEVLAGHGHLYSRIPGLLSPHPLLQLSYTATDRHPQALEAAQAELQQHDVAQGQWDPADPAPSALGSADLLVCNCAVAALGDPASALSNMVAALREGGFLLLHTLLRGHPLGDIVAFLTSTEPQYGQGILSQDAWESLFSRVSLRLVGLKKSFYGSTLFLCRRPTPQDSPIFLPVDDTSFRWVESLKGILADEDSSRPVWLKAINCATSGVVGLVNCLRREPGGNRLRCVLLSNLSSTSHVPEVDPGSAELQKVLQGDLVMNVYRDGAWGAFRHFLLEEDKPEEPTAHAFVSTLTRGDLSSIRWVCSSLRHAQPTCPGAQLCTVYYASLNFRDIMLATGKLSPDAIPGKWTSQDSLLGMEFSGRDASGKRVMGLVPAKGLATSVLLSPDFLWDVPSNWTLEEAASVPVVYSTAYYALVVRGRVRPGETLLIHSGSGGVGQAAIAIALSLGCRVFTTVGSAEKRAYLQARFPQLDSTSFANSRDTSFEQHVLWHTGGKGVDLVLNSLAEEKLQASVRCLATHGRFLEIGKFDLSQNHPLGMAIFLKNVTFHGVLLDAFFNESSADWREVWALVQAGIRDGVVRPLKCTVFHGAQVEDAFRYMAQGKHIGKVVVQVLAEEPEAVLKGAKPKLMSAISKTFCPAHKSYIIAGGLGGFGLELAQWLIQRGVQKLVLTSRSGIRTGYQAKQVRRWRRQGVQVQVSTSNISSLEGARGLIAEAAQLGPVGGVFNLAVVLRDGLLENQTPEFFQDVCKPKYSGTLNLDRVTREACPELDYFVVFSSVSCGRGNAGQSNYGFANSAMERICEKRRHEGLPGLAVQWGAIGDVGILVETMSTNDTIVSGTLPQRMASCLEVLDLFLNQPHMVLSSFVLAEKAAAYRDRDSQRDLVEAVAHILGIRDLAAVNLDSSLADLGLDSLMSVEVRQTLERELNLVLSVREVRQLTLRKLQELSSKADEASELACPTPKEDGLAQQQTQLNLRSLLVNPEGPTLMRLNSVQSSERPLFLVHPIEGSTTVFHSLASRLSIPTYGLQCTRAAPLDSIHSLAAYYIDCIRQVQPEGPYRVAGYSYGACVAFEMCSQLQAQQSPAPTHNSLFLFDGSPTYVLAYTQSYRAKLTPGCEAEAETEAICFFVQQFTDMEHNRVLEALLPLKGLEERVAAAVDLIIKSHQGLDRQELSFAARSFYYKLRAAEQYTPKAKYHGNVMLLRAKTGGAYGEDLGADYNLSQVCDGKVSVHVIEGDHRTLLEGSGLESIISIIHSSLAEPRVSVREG
experiment_notes: FAS thioesterase domain inhibitors, dose response, biochemical, kinetic fluorescence intensity (AID 624326);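 further: rate of fluorescence rise from hydrolysis of a fluorogenic O-methyl fluorescein ester substrate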
Type: functional
Active and inactive are the calls of the source.
I would appreciate it if you answered using one of these outcomes: class 1 (active), class 0 (inactive)

> print(dat)
                                   compound                           measured.target  class.name
1  O=C(/C=C/c1cccc([N+](=O)[O-])c1)NCCSCc1c(Cl)cccc1Cl  Fatty acid synthase (Homo sapiens, UniProt P49327)     class 1

Could you check what this test reported for C[C@@]12C(=O)Nc3cc(F)c(F)cc3C(=O)N1[C@H]1c3ccccc3OC[C@@H]1[C@@H]2c1ccccc1 ? class 1

Could you check what this test reported for O=C1NC(=S)N(C2CCCCC2)C(=O)/C1=C/NNC(=O)c1ccccc1O ? class 1

Could you check what this test reported for O=c1oc(-c2ccccc2Br)nc2ccccc12 ? class 1

Could you check what this test reported for O=[N+]([O-])c1cc(CS(=O)(=O)Oc2ccc(Cl)cc2)c(O)c([N+](=O)[O-])c1 ? class 0

Could you check what this test reported for CCCCOC(=O)CNc1nnc(SCC(=O)OCC)nc1O ? class 1

Could you check what this test reported for COc1ccc(C2CC(c3cccs3)=NN2C(=O)CSc2nc(=O)n3ccc(C)cc3n2)cc1 (stereo not drawn) ? class 1

Could you check what this test reported for CC(=O)c1cccc(-c2ccnc3c2CC(C(=O)Nc2ccc(F)c(Cl)c2)O3)c1 (stereo not drawn) ? class 1

---

experiment_notes: Luminescence Cell-Based Dose Retest to Confirm Inhibitors of Cancer Stem Cells. [Related pubchem assays (depositor defined):AID2717, AID2721]
Format: functional
condition_context: Homo sapiens
The source made the active and inactive calls.
readout: AC50

Reference set, count: 5
> print(dat)
                                   molecule  readout            result
1  Cc1c(CCOC(=O)C2C3CC4CC(C3)CC2C4)sc[n+]1CC(=O)c1ccc(Br)cc1 (stereo unspecified)     AC50  2.17 µM (active)
2           Clc1ccc(Nc2ncnc3ccc(Br)cc23)cc1     AC50   4.4 µM (active)
3  CC(=O)Oc1ccc(C(=O)Nc2ccc(C3(C#N)CCCC3)cc2)cc1     AC50  1.83 µM (active)
4  CCC(=O)Nc1ccc(C(=O)Cn2ncc(Cl)c(Cl)c2=O)cc1     AC50  5.04 µM (active)
5  CCCCNc1c(-c2ccc(OC)c(Sc3ccc(OC)cc3)c2)nc2ccccn12     AC50     6 µM (active)

Would you kindly look at the next entry?
Which AC50 value is on record for O=[N+]([O-])c1ccc(S(=O)(=O)Nc2ccc(-c3csc(-c4ccccc4)n3)cc2)cc1 ? 2.33 µM (active)

---

measured_target: Peroxisome proliferator-activated receptor gamma/Nuclear receptor coactivator 2 (Homo sapiens);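 further: agonist potency for raising coactivator recruitment to the receptor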
Sequence (P37231 whole entry): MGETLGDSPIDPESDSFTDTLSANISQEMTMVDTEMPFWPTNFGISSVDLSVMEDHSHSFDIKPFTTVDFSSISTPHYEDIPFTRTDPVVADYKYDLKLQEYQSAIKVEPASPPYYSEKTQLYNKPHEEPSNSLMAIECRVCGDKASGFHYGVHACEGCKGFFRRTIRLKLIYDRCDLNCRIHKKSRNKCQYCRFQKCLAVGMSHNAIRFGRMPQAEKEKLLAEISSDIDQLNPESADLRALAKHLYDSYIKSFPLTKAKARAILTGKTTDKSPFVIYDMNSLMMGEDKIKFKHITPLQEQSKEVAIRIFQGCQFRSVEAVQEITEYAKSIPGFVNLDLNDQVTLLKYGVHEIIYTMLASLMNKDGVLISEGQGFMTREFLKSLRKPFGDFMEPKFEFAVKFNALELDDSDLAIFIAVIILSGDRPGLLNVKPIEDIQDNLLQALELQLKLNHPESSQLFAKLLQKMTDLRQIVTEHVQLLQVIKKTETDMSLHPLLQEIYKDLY
Sequence (Q15596 whole entry, further chain): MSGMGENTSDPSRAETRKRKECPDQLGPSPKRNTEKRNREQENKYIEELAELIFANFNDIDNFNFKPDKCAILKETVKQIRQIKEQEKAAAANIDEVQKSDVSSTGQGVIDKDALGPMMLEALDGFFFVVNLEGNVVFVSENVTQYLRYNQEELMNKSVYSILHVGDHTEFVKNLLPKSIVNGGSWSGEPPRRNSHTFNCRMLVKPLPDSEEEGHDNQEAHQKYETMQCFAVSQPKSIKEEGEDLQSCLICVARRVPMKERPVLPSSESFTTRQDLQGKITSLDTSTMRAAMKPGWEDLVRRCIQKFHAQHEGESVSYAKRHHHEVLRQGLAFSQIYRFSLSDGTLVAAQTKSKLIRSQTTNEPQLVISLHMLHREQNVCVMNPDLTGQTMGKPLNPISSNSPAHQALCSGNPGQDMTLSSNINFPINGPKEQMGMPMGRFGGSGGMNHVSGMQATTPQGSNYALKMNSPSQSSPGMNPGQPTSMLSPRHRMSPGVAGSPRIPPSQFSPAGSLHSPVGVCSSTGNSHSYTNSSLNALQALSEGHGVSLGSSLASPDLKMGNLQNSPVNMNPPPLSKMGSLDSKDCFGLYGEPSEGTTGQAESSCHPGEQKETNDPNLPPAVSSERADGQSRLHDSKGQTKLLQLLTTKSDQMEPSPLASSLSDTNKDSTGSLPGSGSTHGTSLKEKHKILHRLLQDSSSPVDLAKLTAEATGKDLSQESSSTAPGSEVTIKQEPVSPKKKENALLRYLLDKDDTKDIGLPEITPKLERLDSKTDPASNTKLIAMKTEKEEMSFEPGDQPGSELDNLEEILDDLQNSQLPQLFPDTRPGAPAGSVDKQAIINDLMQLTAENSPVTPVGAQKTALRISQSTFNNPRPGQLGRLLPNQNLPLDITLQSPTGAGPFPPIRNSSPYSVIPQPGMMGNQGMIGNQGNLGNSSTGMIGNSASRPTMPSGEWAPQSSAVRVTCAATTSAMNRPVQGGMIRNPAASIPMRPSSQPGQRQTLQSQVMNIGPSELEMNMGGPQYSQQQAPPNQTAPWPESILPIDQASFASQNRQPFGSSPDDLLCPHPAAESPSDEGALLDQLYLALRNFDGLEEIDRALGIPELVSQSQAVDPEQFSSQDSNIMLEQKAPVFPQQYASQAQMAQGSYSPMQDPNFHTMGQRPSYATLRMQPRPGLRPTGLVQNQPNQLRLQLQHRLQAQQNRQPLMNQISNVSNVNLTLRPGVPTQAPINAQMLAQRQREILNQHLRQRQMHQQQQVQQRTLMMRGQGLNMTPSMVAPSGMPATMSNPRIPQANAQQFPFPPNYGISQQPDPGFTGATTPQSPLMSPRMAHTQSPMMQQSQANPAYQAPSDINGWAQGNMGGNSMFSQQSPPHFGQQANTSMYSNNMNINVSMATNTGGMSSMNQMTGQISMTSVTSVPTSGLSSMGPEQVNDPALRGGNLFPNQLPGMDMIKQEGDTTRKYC
Format: functional
readout: EC50

Reference set, count: 3
> print(dat)
                                 cpd.smiles  readout                result
1  COC(=O)c1ccccc1NC(=O)c1cc(-c2ccc(O)cc2)on1     EC50  31.5 µM (not active)
2  O=C(CSc1ccc(Br)c2cccc(Cl)c12)Nc1ccc(S(=O)(=O)Nc2nccs2)cc1     EC50  28.6 µM (not active)
3  COc1ccc(OCC(=O)Nc2cc(-c3nn(C)c(=O)c4ccccc34)ccc2OC)cc1     EC50  31.2 µM (not active)

Would you kindly look at the next entry?
Which EC50 value is on record for Cc1ccc(NC(=O)c2sc3ccccc3c2Cl)nc1 ? 41.5 µM (not active)

---

Test system: H9c2;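 further: cell death induced by hydrogen peroxide oxidative stress; compound pretreatment for 60 min then peroxide exposure for 2 h; potency is for protecting the cells against peroxide damage rather than for killing them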;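 further: confirmatory concentration-response retest of ultra-high-throughput screening hits for modulation of myocardial damage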
experiment_notes: cells
Assay type: functional, cell-based
condition_context: Rattus norvegicus, H9c2, Myocardium
Calls of active or inactive are those of the source.
I would appreciate it if you answered using one of these outcomes: T (active), F (inactive)

Completed entries (count: 5):
> print(dat)
                                   compound  class.name
1  Cc1ccccc1N(C(=O)c1snc(C(N)=O)c1N)C(C(=O)NCc1ccccc1)c1ccc(O)cc1 (stereo unspecified)           F
2   Cc1ccc2cc3c(NC(=O)c4cccnc4)nn(C)c3nc2c1           F
3  CC(C)CC(C(=O)NC1CCCCC1)N(Cc1cccs1)C(=O)c1snc(C(N)=O)c1N (stereo unspecified)           F
4  O=C(c1cc2nc(-c3ccccc3)cc(-c3ccccc3)n2n1)N1CCN(C(=O)c2ccco2)CC1           F
5  O=C1c2ccccc2NC(c2ccc(-c3cccc([N+](=O)[O-])c3)o2)N1O (stereo unspecified)           T

With those in mind, consider the next compound.
Could you check what this test reported for N#Cc1c(-c2ccco2)cc(-c2ccccn2)nc1N ? T

---

experiment_notes: inhibitors of intracellular T. cruzi replication, confirmation, NIH3T3 host cells, beta-gal luminescence (AID 2044);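 further: intracellular parasites grown in NIH/3T3 mouse fibroblasts as host cells; luminescent beta-galactosidase reporter signal from transgenic T. cruzi replicating inside host cells; inhibitors lower the luminescence signal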
Format: functional, cell-based
Activity calls are given as the source filed them.
readout: EC50

Reference set, count: 3
> print(dat)
                                   compound            result
1  CCC[N+]1(CC#CCC(c2ccccc2)c2ccccc2)CCCCC1   767 nM (active)
2     CNc1ncnc(Sc2ccc(Cl)cc2)c1[N+](=O)[O-]  3200 nM (active)
3      CCCCCOc1ccc(Cn2ccnc2)cc1[N+](=O)[O-]  2210 nM (active)

Record EC50 per entry; entries follow.
1. CCN(CC)S(=O)(=O)c1ccc(C)c(NC(=O)Cn2cnc3cc([N+](=O)[O-])ccc3c2=O)c1
2. CC(C(=O)Nc1ccc(F)c(F)c1F)N(C)CC(=O)Nc1ccccc1Br (stereo not given)

1: 406 nM (active); 2: 1710 nM (active)

---

measured_target: Kappa-type opioid receptor (Homo sapiens)
Sequence (P41145 whole entry): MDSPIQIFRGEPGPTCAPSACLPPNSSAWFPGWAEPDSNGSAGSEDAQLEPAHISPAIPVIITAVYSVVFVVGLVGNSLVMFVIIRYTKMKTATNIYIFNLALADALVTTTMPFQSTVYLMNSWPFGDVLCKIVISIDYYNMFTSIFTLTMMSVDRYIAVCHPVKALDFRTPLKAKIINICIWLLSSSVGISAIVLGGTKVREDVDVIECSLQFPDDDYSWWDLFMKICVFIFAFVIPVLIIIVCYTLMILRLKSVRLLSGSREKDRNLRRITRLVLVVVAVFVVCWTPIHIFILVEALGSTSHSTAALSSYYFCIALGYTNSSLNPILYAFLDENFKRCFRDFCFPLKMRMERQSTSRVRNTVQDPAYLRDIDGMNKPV
Assay type: functional
readout: IC50 (nM)
Numbers only, in nM.

> print(dat)
                                   compound                           measured.target  recorded.number
1  COc1ccc(NC(=O)/C(Cl)=C(/Cl)[S+]([O-])Cc2ccc(C)cc2)cn1 (configuration not stated)  Kappa-type opioid receptor (Homo sapiens)             4710

Would you kindly look at the next entry?
Which IC50 value is on record for O=C(NC(NC(=S)Nc1c(Cl)cc(Cl)cc1Cl)C(Cl)(Cl)Cl)OCc1ccccc1 (configuration not stated) ? 630

---

System: Streptococcus
experiment_notes: Group A Streptococcus viability loss, dose response, counter-screen for streptokinase expression inhibitor project, luminescence, BacTiterGlo (AID 1915);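 further: potency for reduction of bacterial viability or growth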
Format: functional, organism-based
The source made the active and inactive calls.
Hi there, I'd appreciate the recorded EC50 for every entry that follows.

Reference set, count: 4
compound	EC50
Cc1ccc(Cn2c(=O)n(Cc3ccco3)c(=O)c3ccccc32)cc1	> 150 µM (not active)
C=CCSc1nc(-c2ccccc2)c2cc(Cl)ccc2n1	46.4 µM (active)
CO[C@H]1C=CO[C@@]2(C)Oc3c(C)c(O)c4c(O)c(c5c(c4c3C2=O)=NC2(CCN(CC(C)C)CC2)N=5)NC(=O)C(C)=CC=C[C@H](C)[C@H](O)[C@@H](C)[C@@H](O)[C@@H](C)[C@H](OC(C)=O)[C@@H]1C	< 0.06 µM (active)
Cc1ccc(OCCn2c(S)nc3ccccc32)c(C(C)C)c1	17.2 µM (active)

Record EC50 per entry; entries follow.
1. O=C(O)CCCNc1cc(N2CCN(C(=O)c3ccco3)CC2)c2noc3c2c1C(=O)c1ccccc1-3
2. Cc1ccc(C2(c3ccc(C)cc3)CC2C(=O)Nc2ccc([N+](=O)[O-])cc2O)cc1 (centres undefined)
3. O=C1NC(=S)/C(=C\c2ccc(-c3ccccc3Cl)o2)S1
4. O=C(Nc1ncc(Cc2cccc(Cl)c2)s1)c1cccs1

1: 31.8 µM (active); 2: 4.17 µM (active); 3: 28.2 µM (active); 4: 7.17 µM (active)

Which EC50 value is on record for COc1ccc(C2/C(=C(\O)c3ccccc3)C(C)=Nc3nc4ccccc4n32)c(OC)c1 (centres undefined) ? 37.3 µM (active)

---

measured_target: UniProt:P0AE70
Sequence (P0AE70 whole entry): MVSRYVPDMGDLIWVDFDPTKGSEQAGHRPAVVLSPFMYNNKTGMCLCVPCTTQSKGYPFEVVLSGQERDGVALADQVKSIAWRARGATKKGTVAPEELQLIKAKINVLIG
experiment_notes: fluorescent RNA oligo signal without MazF, dose response, counter-screen for MazEF activator project, biochemical, fluorescence, single-stranded RNase substrate (AID 588502)
Type: functional
Calls of active or inactive are those of the source.
I would appreciate it if you answered using one of these outcomes: class 1 for active, class 0 for inactive

Completed entries (count: 3):
> print(dat)
                                 cpd.smiles  class.name
1  Nc1c(C(=O)Nc2ccccc2)sc2nc3c(c(-c4ccco4)c12)CCC3     class 0
2  Cc1ccc2c(n1)sc1c(-c3ccccc3)c(C#N)c(N)nc12     class 0
3  Cn1c(=O)c2[nH]c(-c3ccccc3Cl)c(O)c2n(C)c1=O     class 1

With those in mind, consider the next compound.
Could you check what this test reported for Cc1ccc(Cl)c2c(N=Nc3ccccc3)c(O)[nH]c12 ? class 1

Provenance of the data: ChEMBL document CHEMBL1201862
